# Tested on: MKL-2
# RUN_DESCRIPTION: qHTS assay to identify novel small-molecules to repurpose for Merkel cell carcinoma treatment (AID 1296009); note: nearly all actives have a fitted effect of over 60% in size; note: potency is the fitted concentration of half-maximal effect
# MEASUREMENT_CONDITIONS: MCC and control cell lines, CellTiter-Glo viability, 72 h; series mostly up to 46 µM
Inconclusive results are not listed. Active and inactive are the calls of the source. Calls come from the whole dose curve; as a rule, active = well fitted inhibition curve with a large enough effect; inconclusive = small, poorly fitted or top-dose-only effect; inactive = flat fitted curve, though single readings scatter.
QUANTITY_NAME: Potency

COMPOUND	SYSTEM_UNDER_TEST	Potency
C[C@H](CS)C(=O)N1CCC[C@H]1C(=O)O	MKL-2	inactive
NC1=NCC2c3ccccc3Cc3ccccc3N12 (stereo unspecified)	MKL-2	inactive
CN(C)[C@@H]1C(=O)C(C(N)=O)=C(O)[C@@]2(O)C(=O)C3=C(O)c4c(O)ccc(Cl)c4[C@@H](O)[C@H]3C[C@@H]12	MKL-2	inactive
CC1=C(C)C(=O)C(CCCCC#CCCCC#CCO)=C(C)C1=O	MKL-2	26.6 µM (active)
NC(=O)N1c2ccccc2C=Cc2ccccc21	MKL-2	inactive

Let's switch to this compound now.
Need Potency of Cc1ccc(=O)n(-c2ccccc2)c1 , thanks.
inactive

###

# RUN_DESCRIPTION: High Content Imaging Cell-Based qHTS for Inhibitors of the mTORC1 Signaling Pathway in MEF Cells (AID 2667)
# MEASUREMENT_CONDITIONS: series mostly up to 38.3 µM
Inconclusive results are not listed. Activity calls are given as the source filed them. Calls come from the whole dose curve; as a rule, active = well fitted inhibition curve with a large enough effect; inconclusive = small, poorly fitted or top-dose-only effect, or effect the other way; inactive = no such curve, though single readings can be large or run the other way.
Outcome (select one): Y (active), N (inactive)

Worked cases, answers included:
COMPOUND	ASSIGNED_CATEGORY
NC(=O)c1ncn([C@@H]2O[C@H](CO)[C@@H](O)[C@H]2O)c1O	N
CCn1cc(C(=O)O)c(=O)c2cc3c(cc21)OCO3	N
CN=C(NC#N)NCCSCc1nc[nH]c1C	N
Cc1ccc(S(=O)(=O)NC(=O)NN2CCCCCC2)cc1	N
CCc1c(C)[nH]c2c1C(=O)C(CN1CCOCC1)CC2 (stereo not drawn)	N

Write down the call the test reported for this compound. Item: O=C(O)CN(CCN(CC(=O)O)CC(=O)O)CCN(CC(=O)O)CC(=O)O
N

Check COCCOC(=O)C1=C(C)NC(C)=C(C(=O)OC(C)C)C1c1cccc([N+](=O)[O-])c1 (stereo not drawn) too.
N

Now try Cc1cc(C)c(/C=C2\C(=O)Nc3ccccc32)[nH]1 .
N

Param item: CCCN(CCC)CCc1cccc2c1CC(=O)N2
N

Now the same for FC(F)(F)c1ccccc1-n1ccnc1
N

Please do the same for CCN1CCc2nc(N)oc2CC1 as well.
N

Again, but for c1cnc(N2CCN(Cc3ccc4c(c3)OCO4)CC2)nc1
N

Likewise for CC(C)(C)c1ccc(C(=O)CCCN2CCC(OC(c3ccccc3)c3ccccc3)CC2)cc1 ?
Y

Record: Brc1c(NC2=NCCN2)ccc2nccnc12
N

Thanks! And CCC(=O)c1ccc2c(c1)N(CCCN(C)C)c1ccccc1S2 ?
Y

CC(C)[N+](C)(CCOC(=O)C1c2ccccc2Oc2ccccc21)C(C)C ?
N

Would you kindly repeat that for Cc1nc2c([nH]1)c(=O)n(C)c(=O)n2Cc1ccco1 ?
N

Try the compound O=C(O)CP(=O)(O)O
N

Further, for COc1ccc(CN(CCN(C)C)c2ccccn2)cc1 ?
N

Let us now turn to O=C1CC2(CCCC2)CC(=O)N1CCCCN1CCN(c2ncccn2)CC1
N

Try this compound too: O=C(O)CN(CCOCCOCCN(CC(=O)O)CC(=O)O)CC(=O)O
N

###

# RUN_DESCRIPTION: Counterscreen qHTS for small molecule stabilizers of the endoplasmic reticulum resident proteome: GLuc-NoTag assay (AID 1508627);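 note: SH-SY5Y cells given compound then 100 nM thapsigargin to empty ER calcium; 0% = thapsigargin alone and -100% = DMSO vehicle control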
# MEASUREMENT_CONDITIONS: Gaussia luciferase NoTag secretion counterscreen, luminescence, thapsigargin 100 nM for final 4 h; series mostly up to 76.4 µM
Records with an inconclusive call do not appear. Calls of active or inactive are those of the source. Calls come from the whole dose curve; as a rule, active = well fitted inhibition curve with a large enough effect; inconclusive = small, poorly fitted or top-dose-only effect; inactive = no such curve, though single readings can be large or run the other way.
# output must be one of y (active), n (inactive)

Which result was noted for this compound in the test: CN(C)CC[C@@H](c1ccc(Br)cc1)c1ccccn1
n

###

# Tested on: Dd2
# RUN_DESCRIPTION: qHTS profiling for inhibitors of Plasmodium falciparum proliferation (AID 504749); note: nearly all actives have a fitted effect of over 60% in size; note: potency is the fitted concentration of half-maximal effect
# MEASUREMENT_CONDITIONS: P. falciparum in erythrocytes, SYBR Green DNA, 72 h; series mostly up to 28.7 µM
Records with an inconclusive call do not appear. Activity calls are given as the source filed them. The call rests on the fitted dose curve; in most records, active means well fitted inhibition curve with a large enough effect; inconclusive means small, poorly fitted or top-dose-only effect; inactive means flat fitted curve, though single readings scatter.
QUANTITY_NAME: Potency

COMPOUND	Potency
CN(C)CCCN1c2ccccc2Sc2ccccc21	3.16 µM (active)
CCCCCN(CCCCC)C(=O)C(CCC(=O)O)NC(=O)c1ccc(Cl)c(Cl)c1 (centres undefined)	inactive
CCCCNC(=O)NS(=O)(=O)c1ccc(C)cc1	inactive
COc1cc2c(cc1OC)-c1cc(=Nc3c(C)cc(C)cc3C)n(C)c(=O)n1CC2	7.94 µM (active)
Nc1c2c(nc3ccccc13)CCCC2O (centres undefined)	inactive

Please give the measured Potency for this compound: CN(C)CCN(Cc1cccs1)c1ccccn1
3.98 µM (active)

Can you handle NC(=O)c1ncn([C@@H]2O[C@H](CO)[C@@H](O)[C@H]2O)c1O next?
inactive

Try CSc1ccc(C(=O)c2[nH]c(=O)[nH]c2C)cc1 next.
inactive

Also CC(=O)[C@]1(O)Cc2c(O)c3c(c(O)c2[C@@H](O[C@H]2C[C@H](N)[C@H](O)[C@H](C)O2)C1)C(=O)c1ccccc1C3=O ?
0.158 µM (active)

Now the same for O=C(O)CCCCCCCC(=O)O
inactive

// query: Cc1ccc(S(=O)(=O)NC(=O)NN2CCCCCC2)cc1
inactive

Follow-up item: NCCCNCCSP(=O)(O)O
inactive

// next record CCC(=O)c1ccc2c(c1)N(CCCN(C)C)c1ccccc1S2
7.94 µM (active)

Lookup CCn1cc(C(=O)O)c(=O)c2cc3c(cc21)OCO3
inactive

Then FC(F)(F)c1ccccc1-n1ccnc1 ?
inactive

###

# RUN_DESCRIPTION: qHTS for differential inhibitors of proliferation of Plasmodium falciparum line Dd2 (AID 1882);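 note: compound exposure of 72 h on infected erythrocytes; plate controls were DMSO vehicle for no effect and 0.29 µM artemisinin for full effect; nearly all actives have a fitted effect of over 65% in size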
# MEASUREMENT_CONDITIONS: Plasmodium falciparum Dd2 proliferation inhibition; series mostly up to 28.7 µM
Records with an inconclusive call do not appear. Active and inactive are the calls of the source. The call rests on the fitted dose curve; in most records, active means well fitted inhibition curve with a large enough effect; inconclusive means small, poorly fitted or top-dose-only effect; inactive means flat fitted curve, though single readings scatter.
Entry note: the call must match one of 1 = active, -1 = inactive

Consider the worked cases shown below.
COMPOUND	ASSIGNED_CATEGORY
CC(N=C(NC#N)Nc1ccncc1)C(C)(C)C (centres undefined)	-1
NC(N)=NC(=O)Cc1c(Cl)cccc1Cl	-1
CCCNC(C)C(=O)Nc1ccccc1C (centres undefined)	-1

Please share the test call associated with C[C@]12CCC(=O)C=C1CC[C@@H]1[C@@H]2CC[C@@]2(C)[C@H]1CC[C@]2(O)C(=O)CO .
-1

Next compound: Cc1nc2c([nH]1)c(=O)n(C)c(=O)n2Cc1ccco1
-1

###

# System: P93_24
# RUN_DESCRIPTION: qHTS profiling for inhibitors of Plasmodium falciparum proliferation (AID 504749); note: nearly all actives have a fitted effect of over 60% in size
# MEASUREMENT_CONDITIONS: P. falciparum in erythrocytes, SYBR Green DNA, 72 h; series mostly up to 28.7 µM
Results filed as inconclusive are left out. Calls of active or inactive are those of the source. Calls come from the whole dose curve; as a rule, active = well fitted inhibition curve with a large enough effect; inconclusive = small, poorly fitted or top-dose-only effect; inactive = flat fitted curve, though single readings scatter.
Choose the fitting class; nothing outside y = active, n = inactive is accepted.

// below: answered compounds
COMPOUND	ASSIGNED_CATEGORY
C#CCN(C)CCCOc1ccc(Cl)cc1Cl	n
CN(C)C(=O)Oc1ccc[n+](C)c1	n

Could you please tell me the result logged for c1cnc(N2CCN(Cc3ccc4c(c3)OCO4)CC2)nc1 in this assay?
n

Lookup COc1ccc(CN(CCN(C)C)c2ccccn2)cc1
n

What do you get for Cc1nc2c([nH]1)c(=O)n(C)c(=O)n2Cc1ccco1 ?
n

Consider next the compound CN(C)CCN(Cc1cccs1)c1ccccn1 in the same way.
y

Now consider CNC1(C)C2CCC(C2)C1(C)C (stereo unspecified) and answer again.
n

###

# Tested on: PC26
# RUN_DESCRIPTION: qHTS profiling for inhibitors of Plasmodium falciparum proliferation (AID 504749); note: nearly all actives have a fitted effect of over 60% in size
# MEASUREMENT_CONDITIONS: P. falciparum in erythrocytes, SYBR Green DNA, 72 h; series mostly up to 28.7 µM
Records with an inconclusive call do not appear. Activity calls are given as the source filed them. The call rests on the fitted dose curve; in most records, active means well fitted inhibition curve with a large enough effect; inconclusive means small, poorly fitted or top-dose-only effect; inactive means flat fitted curve, though single readings scatter.
Give your call using only these classes: t for active, f for inactive

Could you please tell me the result logged for CC(C)NNC(=O)c1ccncc1 in this assay?
f

Param item: COCC(=O)O[C@]1(CCN(C)CCCc2nc3ccccc3[nH]2)CCc2cc(F)ccc2[C@@H]1C(C)C
t

Same question for O=C(O)CN(CCOCCOCCN(CC(=O)O)CC(=O)O)CC(=O)O please.
f

Can you check C[N+](C)(C)CCOC(=O)CCC(=O)OCC[N+](C)(C)C next?
f

Now the molecule NC(=O)N1c2ccccc2C=Cc2ccccc21
f

Then CCCC(C(=O)OCCN(CC)CC)(c1ccccc1)c1ccccc1 ?
t

Same thing, different molecule: CNC1(C)C2CCC(C2)C1(C)C (stereo unspecified)
f

Another molecule to look at: NC1=NCC2c3ccccc3Cc3ccccc3N12 (stereo unspecified)
f

Continue with COCCOC(=O)C1=C(C)NC(C)=C(C(=O)OC(C)C)C1c1cccc([N+](=O)[O-])c1 (stereo unspecified)
t

Quick one: CC1=NS(=O)(=O)c2cc(Cl)ccc2N1
f

Next: CC(N=C(NC#N)Nc1ccncc1)C(C)(C)C (stereo unspecified)
f

Try the molecule CCN(CC)CC(=O)Nc1c(C)cccc1C
f

And for CCNC(=O)N1CCN(CCCC(c2ccc(F)cc2)c2ccc(F)cc2)CC1 ?
t

And the next one, CC[N+](C)(C)c1cccc(O)c1 ?
f

Another: CN1CCN(CC(=O)N2c3ccccc3C(=O)Nc3cccnc32)CC1
f

And CCCCOCCOCCOCc1cc2c(cc1CCC)OCO2 ?
f

Now the molecule CCO/C([O-])=N/c1c[n+](N2CCOCC2)no1
f

Also need O=C(O)CP(=O)(O)O , thanks.
f
